Answer each item with its documented self-cleavage.
B1: Twister Ribozyme (parent)
chain: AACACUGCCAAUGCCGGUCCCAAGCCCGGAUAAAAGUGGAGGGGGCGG

Variants of: B1
Experiment: self-cleavage, relative activity (ratio to wild type); higher = more cleavage; co-transcriptional
One number for each entry.

Guide cases for self-cleavage, answers given:
G16C A23G    0.092
G17A G48C    0.724
A34G G38A    0.629
G17A G28C    0.393
G7A U18A    0.0724
C19A G41C    0.114
U18A A35C    0.445
U18C U31G    0.477
G13A C46U    0.931
A10C C21U    0.122

Please state, for each entry, its recorded self-cleavage.
1. U18A A32G
2. A10C A11C
3. C19G A35G
4. U18G C25U
5. A34G G36C

A.
0.407
0.907
0.0996
0.085
0.179

Please state, for each entry, its recorded self-cleavage.
1. A1G A34G
2. C14G

A.
1: 0.361; 2: 0.171

Please state, for each entry, its recorded self-cleavage.
1. C14G C21G
2. U12A G17C
3. A34C G36A

A.
[0.0402, 0.114, 0.0949]

Please state, for each entry, its recorded self-cleavage.
1. G13A G17A
2. C3G G43A
3. C8U U18G
4. C8G A10C

A.
[0.121, 0.12, 0.0414, 0.872]
